Taken from the RepoRT retention time repository (doi:10.1016/j.chroma.2019.01.023).

assay: HILIC, Merck SeQuant ZIC-pHILIC, 150 × 2.1 mm, 5 µm, 40 °C, 0.3 mL/min, estimated dead time 1.1 min; A: acetonitrile; B: water + 2.8 mM ammonium formate, pH 9; gradient (min/%B) 0/5 1/5 10/51 13/51 13.1/5 20/5; details: stereoisomer not certain
property-label: LC retention time (min)
A number alone suffices; assume min.

// sample O=C([O-])C(O)c1ccccc1 (configuration not stated) [MANDELATE] , its LC retention time was 4.83

// sample Cc1cnc(=O)[nH]c1N , its LC retention time was 6.24

// sample NC(N)=NCCCC(N)C(=O)O (configuration not stated) , its LC retention time was 3.62

// sample O=C(CO)C(O)C(O)C(O)COP(=O)(O)O (configuration not stated) [FRUCTOSE 6-PHOSPHATE] , its LC retention time was 9.3

// sample O=P(O)(O)OCC(O)CO (configuration not stated) [GLYCEROL 3-PHOSPHATE] , its LC retention time was 8.79

// sample CSCC[C@H](NC=O)C(=O)O , its LC retention time was 5.35

// sample NC(N)=NC(CC(=O)O)C(=O)O (configuration not stated) [GUANIDINOSUCCINATE] , its LC retention time was 9

// sample C=C(C)CCOP(=O)(O)OP(=O)(O)O [ISOPENTENYL PYROPHOSPHATE] , its LC retention time was 8.52

// sample NC(CS(=O)(=O)O)C(=O)O (configuration not stated) [CYSTEATE] , its LC retention time was 8.92

// sample Nc1ccn(C2OC(CO)C(O)C2O)c(=O)n1 (configuration not stated) , its LC retention time was 7.29

// sample OC1C(O)C(O)C(O)C(O)C1O (configuration not stated) , its LC retention time was 9.47

// sample NCCOP(=O)(O)OP(=O)(O)OCC1OC(n2ccc(N)nc2=O)C(O)C1O (configuration not stated) , its LC retention time was 9.33

// sample NC(CSCC(=O)O)C(=O)O (configuration not stated) , its LC retention time was 6.4

// sample COc1cc(CC(=O)O)ccc1O [HOMOVANILLATE] , its LC retention time was 4.78

// sample CC(CC(=O)O)CC(=O)O [METHYGLUTARATE] , its LC retention time was 7.27

// sample CC(=O)NCC(=O)O , its LC retention time was 7.17

// sample Cn1c(=O)c2[nH]cnc2n(C)c1=O , its LC retention time was 1.98

// sample CSCCC(NC(C)=O)C(=O)O (configuration not stated) , its LC retention time was 4.9

// sample Nc1nc2ncc(CNc3ccc(C(=O)NC(CCC(=O)O)C(=O)O)cc3)nc2c(=O)[nH]1 (configuration not stated) [FOLATE] , its LC retention time was 9.42

// sample Nc1cc([O-])cc(C(=O)O)c1 [3-AMINO-5-HYDROXYBENZOATE] , its LC retention time was 8.3

// sample NC(=O)CC(N)C(=O)O (configuration not stated) , its LC retention time was 9.25

// sample OCC1OC(OC2(CO)OC(CO)C(O)C2O)C(O)C(O)C1O (configuration not stated) , its LC retention time was 8.77
